- targetOrTestSystem: T1, RAS Q61WT[55-64] pHLA-A1 (human)
- T1 construct: also called Q61WT pHLA-A1; H/K/N RAS WT(55-64) peptide on HLA-A1
- experiment: flow cytometry: scFv phage supernatant on peptide-pulsed SigM5 cells (HLA-A1+), median fluorescence intensity

| binder | binding result |
| --- | --- |
| H/R/N RAS Q61R_A1_cl5 (scFv) scFv: DIQMTQSPSSLSASVGDRVTITCRASQDVNTAVAWYQQKPGKAPKLLIYSASFLYSGVPSRFSGSRSGTDFTLTISSLQPEDFATYYCQQYYLYQPITFGQGTKVEIKRTGGGSGGGGSGGGASEVQLVESGGGLVQPGGSLRLSCAASGFNIGMYTMHWVRQAPGKGLEWVALVYPDSGYTNYADSVKGRFTISADTSKNTAYLQMNSLRAEDTAVYYCSRYTWQSMDYWGQGTLVTVSS | no binding |
| H/R/N RAS Q61R_A1_cl3 (scFv) scFv: DIQMTQSPSSLSASVGDRVTITCRASQDVNTAVAWYQQKPGKAPKLLIYSASFLYSGVPSRFSGSRSGTDFTLTISSLQPEDFATYYCQQSYYAPITFGQGTKVEIKRTGGGSGGGGSGGGASEVQLVESGGGLVQPGGSLRLSCAASGFNVQWSHMHWVRQAPGKGLEWVARLSPPSGYTNYADSVKGRFTISADTSKNTAYLQMNSLRAEDTAVYYCSRLILSKGGYGWAMDYWGQGTLVTVSS | no binding |
| H/R/N RAS Q61R_A1_cl19 (scFv) scFv: DIQMTQSPSSLSASVGDRVTITCRASQDVNTAVAWYQQKPGKAPKLLIYSASFLYSGVPSRFSGSRSGTDFTLTISSLQPEDFATYYCQQLMYDPITFGQGTKVEIKRTGGGSGGGGSGGGASEVQLVESGGGLVQPGGSLRLSCAASGFNFGTYWMHWVRQAPGKGLEWVAWFLPDYDYTLYADSVKGRFTISADTSKNTAYLQMNSLRAEDTAVYYCSRHGEYAFDYWGQGTLVTVSS | no binding |
